// data source = patent US20230265187A1

- EXPERIMENTAL_TARGET: T1, his-tagged murine TIGIT (Acro Biosystems #TIT-M52E6) (murine, UniProt P86176 29-148, limits assumed)
- T1 construct: Bought protein; also called mouse his-tagged TIGIT; not shown: his tag
- T1 sequence (looked up): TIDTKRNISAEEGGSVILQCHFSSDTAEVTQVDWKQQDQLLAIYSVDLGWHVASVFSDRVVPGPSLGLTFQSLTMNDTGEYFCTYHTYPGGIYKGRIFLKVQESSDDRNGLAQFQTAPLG
- ASSAY_NOTES: ELISA, coated His-TIGIT, 1 ug/ml
PROPERTY_NAME: Elisa OD450 (OD450)
Your answer is read as OD450, so omit the unit and give the number.

Past entries and their recorded results:
INSERT INTO assay_data (binder, property_name, value_measured) VALUES
  ('43645p1.C11 (scFv, V domains shown) VH: EVQLLESGGGLVQPGGSLRPSCATSGFTFSSYWMSWVRQAPGKGLEWVSGIHISDSTYYADSVKGRFTISRDNSKNTLYLQMNSLRAEDTAVYYCAKGHTVLQYGMDVWGQGTTVTVSS VL: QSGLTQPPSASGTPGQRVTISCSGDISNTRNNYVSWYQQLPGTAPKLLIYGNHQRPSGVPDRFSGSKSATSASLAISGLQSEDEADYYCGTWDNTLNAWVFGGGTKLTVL', 'Elisa OD450', 1.69),
  ('43352p1.A11 (scFv, V domains shown) VH: DVQLVESGGGVVRPGESLRLSCAASGFTFSSHAMSWVRQAPGEGLEWVSLTSGNGVSAYYADSVKGRFTISRDNSKNTLYLQMNSLSAEDTAIYYCARGTYLISFFDYWGLGTLVTVSS VL: QSVLTQPPSASGTPGQRVTISCSGISAKIGNNYVSWYQQLPGTAPKLLIYFNNQRPSGVPDRFSGSKSGTSASLAISGLQSEDEADYYCASWDDSLNAWLFGGGTKLTVL', 'Elisa OD450', 0.056),
  ('43586p2.D05 (scFv, V domains shown) VH: EVQLLESGGGLVQPGGSLRLSCAASGFTFDDYVMSWVRQAPGKGLEWVSLINWNGDKTYYADSVKGRFTISRDNSKNTLYLQMNSLRAEDTAVYYCARHWIVFQYGLDIWGQGTTVTVSS VL: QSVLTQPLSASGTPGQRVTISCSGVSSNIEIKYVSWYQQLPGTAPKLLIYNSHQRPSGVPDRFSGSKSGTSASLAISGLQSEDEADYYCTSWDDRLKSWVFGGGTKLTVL', 'Elisa OD450', 1.67);

Okay, next one:
Lookup result for 43586p1.1.A7 (scFv, V domains shown) VH: EVQLLESGGGLVQPGGSLRLSCAASGFTFTSYAMSWVRQAPGKGLEWVAGISYDGSIQYYADSVKGRLTISRDNSKNTLNLQMNSLRAGDTAVYYCAKHLTGGTTDYYYYGMDVWGQGTTVTVSS VL: QSVMTQPPSASGTPGQRVTISCSGSSSNIGTNRYVHWYKQVPGTAPKLLIYGNHQRPSGVPDRFSGSKSGTSASLAISGLQSEDEADYYCAAWDGSLSGWVFGGGTKLTVL ; measured Elisa OD450: 0.045
